tested on: PEG-3; assay: Peg3 promoter luciferase inhibitors, potency, dose response, cell-based, HeLa, CREF/GAPDH counter-screen panel (AID 624167); settings: HeLa PEG-Prom luciferase reporter, overnight, CREF/GAPDH counter-screens, run 1, dose range 1, individual replicate IC50 per panel
Kindly state IC50 for each of the entries shown.
Answers are plain numbers, in µM.

{"MOLECULE": "CC1CCN(c2ccc(-c3cccc(NC(=O)C(F)(F)F)c3)nn2)CC1", "MEASURED_ON": "PEG-3", "RECORDED_RESULT": 1.84}
{"MOLECULE": "CCOC(=O)c1c(NC(C)=O)sc2c(OCC(O)CNC(C)(C)C)c(Br)ccc12 (centres undefined)", "MEASURED_ON": "PEG-3", "RECORDED_RESULT": 18}
{"MOLECULE": "Cc1ccc2sc(N(CCCN(C)C)C(=O)c3ccc(S(=O)(=O)N(C)C4CCCCC4)cc3)nc2c1C", "MEASURED_ON": "PEG-3", "RECORDED_RESULT": 20.7}

Please go through the list and note IC50 for each molecule.
1. CCCCCCCNC(=O)C1(CC2CC(c3cccc(Br)c3)=NO2)CCNCC1 (centres undefined)
2. CC(C)(C)OC(=O)CC(S(=O)(=O)c1ccccc1)S(=O)(=O)c1ccccc1
3. COC(=O)c1c(N)sc(C(=O)NCCc2ccccc2)c1C
4. O=C1NC(Cc2ccc(O)cc2)c2nc3ccc(F)cc3c(=O)n2-c2cc3ccccc3cc21 (centres undefined)
5. CN(C)CC1CCC/C(=C\c2ccc(OC(=O)/C=C/c3ccccc3)cc2)C1=O (centres undefined)
6. O=C(CSC1c2ccccc2-c2ccccc21)N/N=C/c1ccccc1O
7. CCOc1ccc(NC(=O)c2ccccn2)cc1

Output:
8.05
21
2.22
19.9
21.8
3.04
2.89

* * *

tested on: Rat fibroblasts (CREF); test: Peg3 promoter luciferase inhibitors, potency, dose response, cell-based, HeLa, CREF/GAPDH counter-screen panel (AID 624167); conditions: CREF/GAPDH counter-screens, mean of runs
Calls of active or inactive are those of the source.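 Rule for the calls: active = mean IC50 for reducing PEG3 promoter reporter signal at or below a set limit, with IC50 above the limit in both counter screens; inactive = the rest, including counter screen hits.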
Mark one answer only. Choices: True = active, False = inactive

Examples with answers:
{"MOLECULE": "Cc1csc(NC(=O)c2cn3ccccc3n2)n1", "LABEL_CLASS": "True"}
{"MOLECULE": "CN(c1ccc2nc3ccccc3c(=O)n2n1)C1CCCCC1", "LABEL_CLASS": "True"}
{"MOLECULE": "CCc1ccc(C(=O)Nc2nc3ccccc3[nH]2)cc1", "LABEL_CLASS": "True"}
{"MOLECULE": "CCCC(=O)NC(c1ccc(C)cc1)c1ccc2cccnc2c1O (configuration not stated)", "LABEL_CLASS": "False"}

Task: Check the results log: what was the call for O=c1oc2ccccc2cc1-c1cn2ccccc2n1 ?
Output: True

Task: Check the results log: what was the call for O=C(CCn1cnc(-c2ccccc2)c1-c1ccccc1)N/N=C/c1ccccc1O ?
Output: False

Task: Check the results log: what was the call for CN1C/C(=C/c2ccccc2[N+](=O)[O-])C(=O)/C(=C\c2ccccc2[N+](=O)[O-])C1 ?
Output: True

* * *

system: PEG-3; assay: Peg3 promoter luciferase inhibitors, potency, dose response, cell-based, HeLa, CREF/GAPDH counter-screen panel (AID 624167); conditions: HeLa PEG-Prom luciferase reporter, overnight, CREF/GAPDH counter-screens, run 1, dose range 1, individual replicate IC50 per panel
PROPERTY_LABEL: IC50 (µM)
Give bare numbers, in µM.

Illustrative cases are given below, each with its answer.
{"MOLECULE": "COC1=C(Br)C(=O)c2ncccc2C1=O", "MEASURED_ON": "PEG-3", "PROPERTY_LABEL": "IC50", "RECORDED_RESULT": 8.01}
{"MOLECULE": "Cc1c([N+](=O)[O-])cc(N2C(=O)C=CC2=O)cc1[N+](=O)[O-]", "MEASURED_ON": "PEG-3", "PROPERTY_LABEL": "IC50", "RECORDED_RESULT": 9.19}
{"MOLECULE": "CS(=O)(=O)Nc1cccc(NC(=O)C2Cc3c(-c4ccccc4)ccnc3O2)c1 (centres undefined)", "MEASURED_ON": "PEG-3", "PROPERTY_LABEL": "IC50", "RECORDED_RESULT": 7.17}
{"MOLECULE": "O=C(CCl)N1N=C(c2ccco2)CC1c1cccs1 (centres undefined)", "MEASURED_ON": "PEG-3", "PROPERTY_LABEL": "IC50", "RECORDED_RESULT": 24.2}
{"MOLECULE": "CCC(c1ccc(O)c(O)c1)C(CC)c1ccc(O)c(O)c1 (centres undefined)", "MEASURED_ON": "PEG-3", "PROPERTY_LABEL": "IC50", "RECORDED_RESULT": 14.2}
{"MOLECULE": "O=C(CCl)Nc1ccccc1Sc1ccc(Cl)cc1", "MEASURED_ON": "PEG-3", "PROPERTY_LABEL": "IC50", "RECORDED_RESULT": 13}
{"MOLECULE": "NC1=NC[C@H](Cc2ccccc2)N1CCc1cc(C(F)(F)F)cc(C(F)(F)F)c1", "MEASURED_ON": "PEG-3", "PROPERTY_LABEL": "IC50", "RECORDED_RESULT": 46.5}
{"MOLECULE": "CCN(CC)CCCCNc1ncc2cc(-c3cc(OC)cc(OC)c3)c(NC(=O)NC(C)(C)C)nc2n1", "MEASURED_ON": "PEG-3", "PROPERTY_LABEL": "IC50", "RECORDED_RESULT": 21}
{"MOLECULE": "CCCC(=O)NC(c1cccc([N+](=O)[O-])c1)c1ccc2cccnc2c1O (centres undefined)", "MEASURED_ON": "PEG-3", "PROPERTY_LABEL": "IC50", "RECORDED_RESULT": 3.15}
{"MOLECULE": "CS(=O)(=O)c1ccc(-c2sc3ccccc3c2C#CCCO)cc1", "MEASURED_ON": "PEG-3", "PROPERTY_LABEL": "IC50", "RECORDED_RESULT": 14.3}

Please go through the list and note IC50 for each molecule.
1. Cc1csc(NC(=O)c2ccc(N3CCCC3=O)cc2)n1
2. CN(C)CCNC(=O)c1sc2nc(-c3ccccc3)cc(C(F)(F)F)c2c1N
3. COc1ccc(-c2nc(NC(=O)c3n[nH]c(=O)c4ccccc34)sc2C)cc1
4. COc1ccc(CCn2c(=N)c(C(=O)NC3CCCC3)cc3c(=O)n4cccc(C)c4nc32)cc1

Output:
1. 5.34
2. 20.5
3. 0.904
4. 15.8

Please go through the list and note IC50 for each molecule.
1. CC1(C)Oc2cc3oc(-c4cc(O)cc(O)c4)cc3cc2CC1O (centres undefined)
2. Cn1c(=O)c(C(=O)CCl)c(N)n(Cc2ccccc2)c1=O
3. O=C(CCN1C(=O)/C(=C/c2cccs2)SC1=S)N1CCCCC1

Output:
1. 37.1
2. 28.6
3. 24.6

Please go through the list and note IC50 for each molecule.
1. CCCc1ccc(C(=O)O/N=C(\N)c2ccccn2)cc1
2. COc1ccc(CN(C)C(=O)C(Cc2ccccc2)NC(=O)c2ccccc2)cc1F (centres undefined)

Output:
[36.5, 60.5]

Please go through the list and note IC50 for each molecule.
1. O=C(CCl)N1c2ccccc2Sc2ccc3ccccc3c21
2. O=C(CNCCC1=CCCCC1)Nc1ccc(N2CCCCCC2)cc1
3. O=C(NCCc1ccccc1)c1ccc2c(c1)OCO2
4. COc1ccccc1NC(=O)Nc1nc(C(N)CCc2ccccc2)cs1 (centres undefined)
5. Cc1cc(C)c2nc(NNC(=O)c3ccc(S(=O)(=O)N4CC(C)CC(C)C4)cc3)sc2c1 (centres undefined)
6. Cc1cc2sc3ccc(C#CC4(O)CCCCC4)cc3c(=O)c2cc1C
7. CCCCCCCCCCCCCCCC(O)C[N+](C)(C)CCO (centres undefined)

Output:
1. 12.2
2. 10.6
3. 3.97
4. 12.2
5. 7.33
6. 0.265
7. 17.7

Please go through the list and note IC50 for each molecule.
1. CCc1ccc(O)c(CNCCNCc2cc(CC)ccc2O)c1
2. CCN1CCN(c2ncc(C(=O)Nc3cc(Cl)ccc3OC)c3ccccc23)CC1

Output:
20.6
26.6

* * *

system: GAPDH; assay: Peg3 promoter luciferase inhibitors, potency, dose response, cell-based, HeLa, CREF/GAPDH counter-screen panel (AID 624167); settings: CREF/GAPDH counter-screens, run 1, dose range 1, individual replicate IC50 per panel
Class membership depends on IC50 alone; the intervals are one: < 7 µM; two: ≥ 7 µM and < 20 µM; three: ≥ 20 µM

Examples with answers:
{"MOLECULE": "CC(C)CCCCCCCCCCCCC(=O)NCC(=O)NC1C(O)C(O)C(Nc2ncnc3nc[nH]c23)OC1C(O)CO (stereo not given)", "LABEL_CLASS": "one"}
{"MOLECULE": "O=C(O)c1ccc(CN2C(=O)c3cccc4c([N+](=O)[O-])ccc(c34)C2=O)cc1", "LABEL_CLASS": "three"}
{"MOLECULE": "C=CCn1c(C)cc(C(=O)COc2ccc(C)nc2[N+](=O)[O-])c1C", "LABEL_CLASS": "two"}
{"MOLECULE": "O=C(O)c1ccc(N/N=C/c2ccc(OC(=O)c3cccc(Cl)c3)cc2)cc1", "LABEL_CLASS": "one"}

Task: Which of the defined bands does the recorded IC50 of CCN(CC)S(=O)(=O)c1cccc(C(=O)N/N=C(\C)c2ccc(O)cc2O)c1 sit within?
Output: three

Task: Which of the defined bands does the recorded IC50 of COc1ccc2c(c1)c(=Cc1ccc(N(C)C)cc1)c1cc(-c3ccccc3)[n+](C)n12 sit within?
Output: one

Task: Which of the defined bands does the recorded IC50 of CC(=O)OC1CC[C@]2(C#N)[C@H]3CC[C@]4(C)[C@H](C5C=CC(=O)O5)CCC4(O)C3CCC2(O)C1 (stereo not given in full) sit within?
Output: one

Task: Which of the defined bands does the recorded IC50 of COc1ccc(/C=C2/CCCC(CN(C)C)C2=O)cc1 (stereo not given) sit within?
Output: three

Task: Which of the defined bands does the recorded IC50 of CCc1ccc(/C=C2\SC(=S)N(CCCC(=O)Nc3cc(C)on3)C2=O)cc1 sit within?
Output: two

Task: Which of the defined bands does the recorded IC50 of Cc1oc(-c2ccc3c(c2)OCCO3)cc1C(=O)O sit within?
Output: one
